Target: T1, human serum albumin (HSA), full length (human, UniProt P02768 25-609)
T1 construct: mature; Immobilized on CM5 chip (SPR) or coated on plates (ELISA)
T1 sequence (P02768 25-609): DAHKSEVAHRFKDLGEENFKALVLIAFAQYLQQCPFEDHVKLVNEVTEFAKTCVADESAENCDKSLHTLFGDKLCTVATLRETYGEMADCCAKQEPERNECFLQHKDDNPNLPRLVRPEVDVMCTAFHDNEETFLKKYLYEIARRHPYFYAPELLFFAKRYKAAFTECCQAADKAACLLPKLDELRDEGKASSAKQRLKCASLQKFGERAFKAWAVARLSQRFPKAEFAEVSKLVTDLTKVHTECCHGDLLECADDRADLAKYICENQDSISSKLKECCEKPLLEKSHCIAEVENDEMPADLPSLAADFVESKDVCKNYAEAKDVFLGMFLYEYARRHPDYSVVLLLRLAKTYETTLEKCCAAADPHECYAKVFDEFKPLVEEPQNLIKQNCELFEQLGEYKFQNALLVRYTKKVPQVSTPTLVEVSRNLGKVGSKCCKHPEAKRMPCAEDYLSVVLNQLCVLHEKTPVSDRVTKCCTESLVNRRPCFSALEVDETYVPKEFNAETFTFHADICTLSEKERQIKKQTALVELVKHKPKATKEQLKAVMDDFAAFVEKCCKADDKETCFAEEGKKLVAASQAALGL
Experiment: SPR, immobilized HSA, 500 nM Adnectin, 25 C
observation type: HSA Binding (RU)

# binder, observation type, endpoint value
rows = [
    ("ADX_6727_G10 (Y35S/K85A) (designed binder, Full His6-tagged entry) MGVSDVPRDLEVVAATPTSLLISWDAPAVTVRYYRITYGREVQKSSDLGPLYIYQEFTVPGSKSTATISGLKPGVDYTITVYAVTGSGESPASSAPISINYRTEIDKPSQHHHHHH", "HSA Binding (RU)", "27 RU"),
    ("ADX_7016_G01 (Y44S) (designed binder, Full His6-tagged entry; also called 6727_G02) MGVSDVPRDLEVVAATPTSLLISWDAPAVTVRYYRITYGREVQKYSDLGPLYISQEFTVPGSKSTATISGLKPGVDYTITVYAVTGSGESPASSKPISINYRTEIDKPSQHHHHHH", "HSA Binding (RU)", "33 RU"),
    ("ADX_7016_A01 (parent PKE2 Adnectin) (designed binder, N-terminal Met may be cleaved; also called 2629_E06; ADX_2629_E06) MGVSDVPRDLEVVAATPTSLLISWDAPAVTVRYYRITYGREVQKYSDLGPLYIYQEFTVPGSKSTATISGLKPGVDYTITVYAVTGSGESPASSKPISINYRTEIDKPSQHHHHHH", "HSA Binding (RU)", "54 RU"),
    ("ADX_6727_H06 (Y44Q/K85T) (designed binder, Full His6-tagged entry) MGVSDVPRDLEVVAATPTSLLISWDAPAVTVRYYRITYGREVQKYSDLGPLYIQQEFTVPGSKSTATISGLKPGVDYTITVYAVTGSGESPASSTPISINYRTEIDKPSQHHHHHH", "HSA Binding (RU)", "24 RU"),
    ("ADX_6727_G04 (Y44S/K85S) (designed binder, Full His6-tagged entry) MGVSDVPRDLEVVAATPTSLLISWDAPAVTVRYYRITYGREVQKYSDLGPLYISQEFTVPGSKSTATISGLKPGVDYTITVYAVTGSGESPASSSPISINYRTEIDKPSQHHHHHH", "HSA Binding (RU)", "28 RU"),
    ("ADX_6727_G06 (Y35A/K85S) (designed binder, Full His6-tagged entry) MGVSDVPRDLEVVAATPTSLLISWDAPAVTVRYYRITYGREVQKASDLGPLYIYQEFTVPGSKSTATISGLKPGVDYTITVYAVTGSGESPASSSPISINYRTEIDKPSQHHHHHH", "HSA Binding (RU)", "26 RU"),
    ("ADX_7016_C03 (Y44Q) (designed binder, Full His6-tagged entry; also called 6727_B03) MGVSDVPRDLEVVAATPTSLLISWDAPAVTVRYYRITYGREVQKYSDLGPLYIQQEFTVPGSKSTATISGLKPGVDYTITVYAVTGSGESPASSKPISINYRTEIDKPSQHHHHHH", "HSA Binding (RU)", "14 RU"),
    ("ADX_7016_E02 (L38T) (designed binder, Full His6-tagged entry; also called 6727_E08) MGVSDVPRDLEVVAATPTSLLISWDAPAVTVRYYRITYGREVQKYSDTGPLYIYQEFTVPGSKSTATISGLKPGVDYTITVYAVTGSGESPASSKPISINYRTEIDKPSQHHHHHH", "HSA Binding (RU)", "25 RU"),
]
